target: Aβ40 peptide (Homo sapiens, UniProt P05067); construct: we preferred using Aβ40 peptide; assay: Inhibition of Aβ40 aggregation, ThT fluorescence-based method; assay type: biochemical; details: Aβ40, ThT assay
Sequence (P05067 672-711 limits assumed): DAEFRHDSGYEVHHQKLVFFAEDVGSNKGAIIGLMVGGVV
RECORDED_ENDPOINT: Aβ aggregation inhibition, result in words

compound="COc1ccc2c(c1)/C(=N/Nc1nc(C)c(C)s1)C(=O)N2 [Compound 14]" system="Aβ40 peptide (Homo sapiens, UniProt P05067)" meas_value="very weak inhibitor"
compound="COc1ccc2c(c1)/C(=N/Nc1ccnc3cc(Cl)ccc13)C(=O)N2 [Compound 11]" system="Aβ40 peptide (Homo sapiens, UniProt P05067)" meas_value="very weak inhibitor"

====

target: Aβ40 peptide (Homo sapiens, UniProt P05067); construct: we preferred using Aβ40 peptide; test: Inhibition of Aβ40 aggregation, ThT fluorescence-based method; assay type: biochemical; settings: Aβ40, compound 100 µM, ThT fluorescence, 2% HFIP, PBS, 2 h at 25 °C; mean ± SEM of three independent experiments; read-out: % Inhibition @ 100 µM, Aβ antiaggregating activity
Use inhibition at 100 µM to assign classes; range list: low (below 40%), medium (40% to below 60%), high (60% or more)

Exam item: Lab note: sort COc1ccc2c(c1)/C(=N/Nc1ccc(C#N)cc1)C(=O)N2 into the matching inhibition at 100 µM band.
Marked response: low

Exam item: Lab note: sort COc1ccc2c(c1)/C(=N/Nc1nc(C)c(C)s1)C(=O)N2 into the matching inhibition at 100 µM band.
Marked response: medium

Exam item: Lab note: sort COc1ccc2c(c1)/C(=N/Nc1ccc(C(F)(F)F)cc1)C(=O)N2 into the matching inhibition at 100 µM band.
Marked response: medium

Exam item: Lab note: sort COc1ccc2c(c1)/C(=N/Nc1ccc3ccccc3n1)C(=O)N2 into the matching inhibition at 100 µM band.
Marked response: high

Exam item: Lab note: sort COc1ccc2c(c1)/C(=N/Nc1ccnc3cc(Cl)ccc13)C(=O)N2 into the matching inhibition at 100 µM band.
Marked response: low

Exam item: Lab note: sort COc1ccc2c(c1)/C(=N/Nc1cccc3cccnc13)C(=O)N2 into the matching inhibition at 100 µM band.
Marked response: medium

Exam item: Lab note: sort CC(C)c1ccc(NN=C2C(=O)Nc3ccc(S(=O)(=O)O)cc32)cc1 into the matching inhibition at 100 µM band.
Marked response: low

Exam item: Lab note: sort CC(C)c1ccc(NN=C2C(=O)Nc3c(Br)cccc32)cc1 into the matching inhibition at 100 µM band.
Marked response: low

Exam item: Lab note: sort CC(C)c1ccc(N/N=C2\C(=O)Nc3cc4c(cc32)OCO4)cc1 into the matching inhibition at 100 µM band.
Marked response: high

Exam item: Lab note: sort COc1ccc2c(c1)C(=NNC(=O)c1cccc(Cl)c1)C(=O)N2 into the matching inhibition at 100 µM band.
Marked response: low

Exam item: Lab note: sort CCCCc1ccc2c(c1)C(=NNc1ccc(C(C)C)cc1)C(=O)N2 into the matching inhibition at 100 µM band.
Marked response: medium

====

assay: Lipophilicity by RP-HPLC (log k'w); type: physicochemical; conditions: RP-HPLC C18, MeOH/10 mM ammonium formate buffer pH 4.5, extrapolated to 100% aqueous mobile phase, 25 °C
Use log k'w to assign classes; range list: bucket 1 = under 5, bucket 2 = from 5 up to 6, bucket 3 = 6 and over

Exam item: Lab note: sort COc1ccc2c(c1)/C(=N/Nc1ccc(C(C)C)cc1)C(=O)N2CCc1ccccc1 [Compound 33] into the matching log k'w band.
Marked response: bucket 3

Exam item: Lab note: sort COc1ccc2c(c1)/C(=N/Nc1nc(-c3cccc(Br)c3)cs1)C(=O)N2 [Compound 18] into the matching log k'w band.
Marked response: bucket 2

Exam item: Lab note: sort COc1ccc2c(c1)/C(=N/Nc1cc(C(F)(F)F)cc(C(F)(F)F)c1)C(=O)N2 [Compound 6] into the matching log k'w band.
Marked response: bucket 3

Exam item: Lab note: sort COc1ccc2c(c1)/C(=N/Nc1cccc3ccccc13)C(=O)N2 [Compound 8] into the matching log k'w band.
Marked response: bucket 2

Exam item: Lab note: sort COc1ccc2c(c1)/C(=N/Nc1ccc(C(C)C)cc1)C(=O)N2C1CC1 [Compound 28] into the matching log k'w band.
Marked response: bucket 3

Exam item: Lab note: sort COc1ccc2c(c1)/C(=N/Nc1ccccn1)C(=O)N2 [Compound 7] into the matching log k'w band.
Marked response: bucket 1

Exam item: Lab note: sort COc1ccc2c(c1)/C(=N\N=C/c1ccc(C(C)C)cc1)C(=O)N2 [Compound 21] into the matching log k'w band.
Marked response: bucket 1

Exam item: Lab note: sort COc1ccc2c(c1)/C(=N/Nc1nc(-c3cccc(O)c3)cs1)C(=O)N2 [Compound 16] into the matching log k'w band.
Marked response: bucket 1

Exam item: Lab note: sort COc1ccc2c(c1)/C(=N\N=C/c1cccc(Cl)c1)C(=O)N2 [Compound 22] into the matching log k'w band.
Marked response: bucket 1
